Tested on: OVCAR8
Assay: drug sensitivity score (DSS2) on cancer cell count; higher = more sensitive; extreme values may be limits of the assay
Conditions: co-cultured fibroblast: BJHTERT; 72 h
Label condition not met if drug sensitivity score falls below 3 DSS; label condition met in every other case.

Compound	Target Or System	Cat
CS(=O)(=O)c1ccc(-c2cnc(N)c(C(=O)Nc3ccccc3)n2)cc1	OVCAR8	condition met
C[C@H]1CN(C2COC2)CCN1c1ccc(Nc2cc(-c3ccnc(N4CCn5c(cc6c5CC(C)(C)C6)C4=O)c3CO)cn(C)c2=O)nc1	OVCAR8	condition not met
N#Cc1ccc2[nH]c(O)c(-c3ccc(CN4CCOCC4)cn3)c2c1	OVCAR8	condition not met
CC1=C(/C=C/C(C)=C/C=C/C(C)=C/C(=O)O)C(C)(C)CCC1	OVCAR8	condition not met

Hi, just wondering whether CC[C@H](Nc1ncnc2[nH]cnc12)c1nc2cccc(F)c2c(=O)n1-c1ccccc1 shows drug sensitivity score of 3 DSS or higher.
condition not met

Hi, just wondering whether COc1cc([C@@H]2c3cc4c(cc3[C@@H](O[C@@H]3O[C@@H]5CO[C@@H](C)O[C@H]5[C@H](O)[C@H]3O)[C@H]3COC(=O)[C@H]23)OCO4)cc(OC)c1O [Etoposide] shows drug sensitivity score of 3 DSS or higher.
condition met

Hi, just wondering whether Cn1nccc1Nc1nccc(-c2ccn([C@H](CO)c3ccc(Cl)c(F)c3)c(=O)c2)n1 shows drug sensitivity score of 3 DSS or higher.
condition not met

Hi, just wondering whether CC(=O)Nc1cccc(-n2c(=O)n(C3CC3)c(=O)c3c(Nc4ccc(I)cc4F)n(C)c(=O)c(C)c32)c1 shows drug sensitivity score of 3 DSS or higher.
condition met

Hi, just wondering whether CCNC(=O)c1noc(-c2cc(C(C)C)c(O)cc2O)c1-c1ccc(CN2CCOCC2)cc1 shows drug sensitivity score of 3 DSS or higher.
condition met

---

Tested on: OVCAR8
Assay: drug sensitivity score (DSS2) on cancer cell count; higher = more sensitive; extreme values may be limits of the assay
Conditions: co-cultured fibroblast: BJHTERT; 72 h
Consider the reported drug sensitivity score of an entry and match it to a band in bottom range = under 4 DSS, center range = from 4 DSS up to 7 DSS, top range = 7 DSS and over

The following molecules have reported results that may help.
Structure Notation	Target Or System	Cat
Cn1cnc2c(F)c(Nc3ccc(Br)cc3Cl)c(C(=O)NOCCO)cc21	OVCAR8	center range
Nc1nc(Cl)nc2c1ncn2[C@@H]1O[C@H](CO)[C@@H](O)[C@@H]1F	OVCAR8	top range
Cc1nn(C)c(COc2ccc(N3CCN(S(=O)(=O)N(C)C)CC3)cc2)c1-c1cccc2c(CCCOc3cccc4ccccc34)c(C(=O)O)n(CCN3CCOCC3)c12	OVCAR8	center range
Nc1nc(NC2CC2)cc(-c2cccc(Cl)c2Cl)n1	OVCAR8	top range

Textbook exercise: identify the category of the molecule given here, CC(C)(C#N)c1cc(Cn2cncn2)cc(C(C)(C)C#N)c1 , according to its measured value.
bottom range

Textbook exercise: identify the category of the molecule given here, CN(C)C/C=C/C(=O)Nc1cc2c(Nc3ccc(F)c(Cl)c3)ncnc2cc1O[C@H]1CCOC1 , according to its measured value.
bottom range

---

Tested on: KURAMOCHI
Assay: drug sensitivity score (DSS2) on cancer cell count; higher = more sensitive; extreme values may be limits of the assay
Conditions: co-cultured fibroblast: BJHTERT; 72 h
Test Readout: drug sensitivity score (DSS)
Give a bare numeral; the unit DSS is implied.

Use these answered entries as a reference point.
Compound	Target Or System	Test Readout	Measured Value
COC(=O)N[C@@H](C)CNc1nccc(-c2cn(C(C)C)nc2-c2cc(Cl)cc(NS(C)(=O)=O)c2F)n1 [Encorafenib]	KURAMOCHI	drug sensitivity score	0
CC(C)(C)c1cnc(CSc2cnc(NC(=O)C3CCNCC3)s2)o1 [SNS-032]	KURAMOCHI	drug sensitivity score	21.1
C[C@H]1CN(C2COC2)CCN1c1ccc(Nc2cc(-c3ccnc(N4CCn5c(cc6c5CC(C)(C)C6)C4=O)c3CO)cn(C)c2=O)nc1 [GDC-0853]	KURAMOCHI	drug sensitivity score	0
CC#CC(=O)N1CCC[C@H]1c1nc(-c2ccc(C(=O)Nc3ccccn3)cc2)c2c(N)nccn12 [Acalabrutinib]	KURAMOCHI	drug sensitivity score	0
Cn1cc(C2=Nc3cc(NC(=O)C(N)C4CCCCC4)cc4c3C2=CNNC4=O)cn1 (stereo not drawn)	KURAMOCHI	drug sensitivity score	14.6

Tell us which drug sensitivity score value is on record for C[C@H](Nc1ncnc2[nH]cnc12)c1cc2ccc(F)cc2nc1-c1ccccn1 [AMG319]
1.2

Tell us which drug sensitivity score value is on record for CNC(=O)c1ccccc1Sc1ccc2c(/C=C/c3ccccn3)n[nH]c2c1 [Axitinib]
8.7
